FYI, the data here is from PubChem BioAssay (NCI).

# Tested on: COLO 205 colon
# test-protocol: NCI-60 one-dose screen, 48 h
# assay-setup: 10 µM unless noted
This is part of a sample that, as a whole, favours compounds with a hit. Of some 83,000 tested, about 20% had one in any assay. The source made the active and inactive calls. How the source made its calls: active means growth percent below 10; inactive means the rest.
Return exactly one item of active, inactive

Study these solved cases before continuing.
[[record]]
compound = "c1ccc2c(c1)Nc1ccncc1S2"
measured_on = "COLO 205 colon"
assigned_category = "inactive"

[[record]]
compound = "Cc1nc2cnc(N)c(C#Cc3cncc(C(=O)Nc4ccc(CN5CCN(C)CC5)c(C(F)(F)F)c4)c3)c2nc1C"
measured_on = "COLO 205 colon"
assigned_category = "active"

[[record]]
compound = "C#C[C@]1(O)CC[C@H]2[C@@H]3CC=C4c5sc(Nc6ccccc6)nc5CC[C@]4(C)[C@H]3CC[C@@]21C"
measured_on = "COLO 205 colon"
assigned_category = "inactive"

[[record]]
compound = "CCCCn1c(-c2ccc(-c3nc(-c4ccc(Cl)cc4)no3)cc2)nc(-c2ccccc2)c1-c1ccccc1"
measured_on = "COLO 205 colon"
assigned_category = "inactive"

[[record]]
compound = "OC(c1ccccc1)C(NC(Cc1ccccc1)c1ccccc1)c1ccccc1 (centres undefined)"
measured_on = "COLO 205 colon"
assigned_category = "inactive"

[[record]]
compound = "O=C(N/N=C/[C@H](O)[C@@H](O)[C@@H](O)[C@H](O)CO)c1ccc(NC(=O)c2cccnc2)cc1"
measured_on = "COLO 205 colon"
assigned_category = "inactive"


Enquiry: For `COc1ccc(OC)c(/C=C/c2nnc(Nc3ccccc3)o2)c1` , which call appears in the assay record?
Return: inactive

Enquiry: // outcome(item) with item = `COc1ccc(-c2c(C(=O)NS(C)(=O)=O)n(Cc3cccc(C(F)(F)F)c3)c3ccccc23)cc1`
Return: inactive

Enquiry: Tell me the recorded outcome of this test for `N#C/C(=C\c1ccc(F)cc1)n1nc2cccc(F)c2n1` .
Return: inactive
